Test system: P388 leukemia ip, CD2F1 mice, survival T/C
Assay: NCI In Vivo Anticancer Drug Screen. Data for tumor model P388 Leukemia (intraperitoneal) in CD2F1 (CDF1) mice
Conditions: endpoint: median survival time; dose: 100.0 mg/kg/injection; schedule: Q04DX003 (ip); vehicle: saline
Toxic doses and inconclusive results are not listed. How the source made its calls: active means survival T/C of 150% or more; inactive means T/C below 125% in these data.
Result category, one only: Y (active), N (inactive)

molecule="COc1cc2cc3c4cc(OC)c(OC)cc4cc[n+]3c(C)c2cc1OC (tested in a mixture with another compound)" target_of_assay="P388 leukemia ip, CD2F1 mice, survival T/C" answer_label=Y
molecule=C=C(C(=O)O)C(=O)O target_of_assay="P388 leukemia ip, CD2F1 mice, survival T/C" answer_label=N
molecule=[O-][N+](=C1c2ccccc2-c2ccccc21)c1ccccc1 target_of_assay="P388 leukemia ip, CD2F1 mice, survival T/C" answer_label=N

Prompt line: What outcome does the record of this test show for CCCCCCC[CH2][Sn]([Cl])([CH2]CCCCCCC)[O][Sn]([CH2]CCCCCCC)([CH2]CCCCCCC)[O]C ?
Response line: N

Prompt line: What would you report for O=C1OCC2C3C=CC(O3)C12 (configuration not stated) ?
Response line: N

Prompt line: What would you report for c1ccc(Cn2ccnc2)nc1 ?
Response line: N

Prompt line: What would you report for Nc1nc(=O)n(C2CC(O)C(CO)O2)cc1Br (configuration not stated) ?
Response line: N

====

Tested on: P388 leukemia ip, CD2F1 mice, survival T/C
Assay: NCI In Vivo Anticancer Drug Screen. Data for tumor model P388 Leukemia (intraperitoneal) in CD2F1 (CDF1) mice
Conditions: endpoint: median survival time; dose: 240.0 mg/kg/injection; schedule: Q01DX005 (ip); vehicle: saline; higher = longer survival
Inconclusive results and toxic doses are left out. Peptide text beside a SMILES is read from it.
T/C listing for selected molecules.

Past entries and their recorded results:
molecule="NC(=O)C(CCCCNc1c(C(=O)O)cc([N+](=O)[O-])cc1[N+](=O)[O-])NC(=O)c1ccccc1 (stereo not drawn)" experimental_result="100 % of control"
molecule="COc1nc2c(nnn2C2OC(CO)C(O)C(O)C2O)c(=O)[nH]1 (stereo not drawn)" experimental_result="100 % of control"

Prompt line: What T/C value was documented for this molecule, O=C1NC2CC1C(O)C2O (stereo not drawn) ?
Response line: 100 % of control

Prompt line: What would you report for O=C(n1ccnc1)C(F)(F)C(F)(F)F ?
Response line: 96 % of control

Prompt line: What would you report for CC1=C(C)C2C3C(=O)NC(=O)C3C1C1C3C(=O)NC(=O)C3C21 (stereo not drawn) ?
Response line: 100 % of control

Prompt line: What would you report for NC(Cc1cnc[nH]1)C(=O)NC(Cc1ccc(O)cc1)C(=O)O (stereo not drawn) (H-His-Tyr-OH; configuration not given here) ?
Response line: 100 % of control

Prompt line: What would you report for CC(=O)/C(=C\c1cccs1)C(=O)CCN(C)C ?
Response line: 91 % of control

Prompt line: What would you report for CN(C)c1ccc(C(c2cc3c(cc2O)OCO3)N2CCN(C(c3ccc(N(C)C)cc3)c3cc4c(cc3O)OCO4)CC2)cc1 (stereo not drawn) ?
Response line: 99 % of control

====

Tested on: P388 leukemia ip, CD2F1 mice, survival T/C
Experiment: NCI In Vivo Anticancer Drug Screen. Data for tumor model P388 Leukemia (intraperitoneal) in CD2F1 (CDF1) mice
Conditions: endpoint: median survival time; dose: 25.0 mg/kg/injection; schedule: Q01DX009 (ip); vehicle: saline with Tween-80; higher = longer survival
Method: The antitumor activity of compounds was measured in mice bearing transplantable tumors. Survival or tumor size were measured and the results are expressed as the measurement made in the treated group (T) divided by the measurement made in the vehicle treated control group (C). The tumor model used in this assay is P388 Leukemia (intraperitoneal) in CD2F1 (CDF1) mice
Inconclusive results and toxic doses are left out.
reported-property: T/C

Prompt line: What T/C value was documented for this compound, CCOC1OCN(C(C)C)CC1(C)C (stereo not drawn) ?
Response line: 98 % of control

Prompt line: What would you report for CN1CCc2c3n(c4ccccc24)C(=O)CCC31 (stereo not drawn) ?
Response line: 120 % of control

Prompt line: What would you report for NNc1n[nH]c(=S)n1N ?
Response line: 104 % of control

Prompt line: What would you report for C/C=C1/C[N+]2(C)CCc3c([nH]c4ccccc34)C2CC1C(CO)C(=O)OC (stereo not drawn) ?
Response line: 104 % of control

Prompt line: What would you report for c1ccc(-c2nc3ccccc3nc2-c2ccc(Sc3ccc(-c4nc5ccccc5nc4-c4ccccc4)cc3)cc2)cc1 ?
Response line: 90 % of control

Prompt line: What would you report for Cc1cnc2c(N)cc(C)c(C)c2c1 ?
Response line: 100 % of control

Prompt line: What would you report for CN(C)CCO[Si](C)(c1ccccc1)c1ccc(F)cc1 (stereo not drawn) ?
Response line: 101 % of control

Prompt line: What would you report for FC(F)(F)S.[Ag] ?
Response line: 116 % of control

Prompt line: What would you report for Cc1ccc(C[n+]2ccc3c([N+](=O)[O-])cccc3c2)cc1 ?
Response line: 114 % of control

Prompt line: What would you report for CC(C)C1=C(O)C2=C(C(=O)C1=O)C1(C)CCCC(C)(C)C1CC2O (stereo not drawn) ?
Response line: 100 % of control

Prompt line: What would you report for O=[n+]1c2c(n([O-])c3cc(Cl)c(Cl)cc31)CCCC2 ?
Response line: 89 % of control

Prompt line: What would you report for CC1=NC2=NC(CCCC(=O)OCc3ccc(Cl)c(Cl)c3)=NC3=CC=CC(=N1)N32 ?
Response line: 101 % of control

Prompt line: What would you report for COc1ccc2c(c1CCl)C(=O)OC2 ?
Response line: 111 % of control

Prompt line: What would you report for COC(=O)CCC1=CC(=O)C(OC)=CC1=O ?
Response line: 99 % of control

Prompt line: What would you report for C=C(C)C(=O)OC1c2c(C)coc2C(=O)C2CCCC(C)C21C (stereo not drawn) ?
Response line: 101 % of control

Prompt line: What would you report for Brc1ccc(C[N+]23CCN(CC2)CC3)cc1 ?
Response line: 90 % of control
